# System: golden syrian hamsters
# measurementProtocol: Test for anti-hyperlipidemia activity in hamsters (blood HDL-c levels)
# Type: in vivo
# reportedConditions: male golden syrian hamsters; 3 mg/kg orally for 5 days; serum HDL-cholesterol 4 hours after last administration; vs vehicle control
Class 1: HDL-c Increase (%) at least 30%. Class -1: HDL-c Increase (%) below 30%.

>>> answerlabel("COc1ccc(N(C)C(=O)C(C)C)cc1C1=C(CN2C(=O)O[C@H](c3cc(C(F)(F)F)cc(C(F)(F)F)c3)[C@@H]2C)CC(C)(C)CC1")
-1
>>> answerlabel("COc1ccc(C(C)C)cc1C1=C(CN2C(=O)O[C@H](c3cc(C(F)(F)F)cc(C(F)(F)F)c3)[C@@H]2C)CC(C(F)(F)F)CC1 (stereo partly shown)")
-1
>>> answerlabel("COc1cc(F)c(C(C)C)cc1C1=C(CN2C(=O)O[C@H](c3cc(C(F)(F)F)cc(C(F)(F)F)c3)[C@@H]2C)CC2(CC1)CC2")
-1
>>> answerlabel("COc1ccc(C(F)(F)F)cc1C1=C(CN2C(=O)O[C@H](c3cc(C(F)(F)F)cc(C(F)(F)F)c3)[C@@H]2C)CC(C)(C)CC1")
-1
>>> answerlabel("COc1ccc(N(C)C(C)=O)cc1C1=C(CN2C(=O)O[C@H](c3cc(C(F)(F)F)cc(C(F)(F)F)c3)[C@@H]2C)CC(C)(C)CC1")
1
>>> answerlabel("COc1cc(F)c(C(C)C(F)(F)F)cc1C1=C(CN2C(=O)O[C@H](c3cc(C(F)(F)F)cc(C(F)(F)F)c3)[C@@H]2C)CC(C)(C)CC1 (stereo partly shown)")
1
>>> answerlabel("COc1ccc(CC(C)(C)C(=O)O)cc1C1=C(CN2C(=O)O[C@H](c3cc(C(F)(F)F)cc(C(F)(F)F)c3)[C@@H]2C)CC(C)(C)CC1")
1
>>> answerlabel("COc1cc(F)c(C(C)C)cc1C1=C(CN2C(=O)O[C@H](c3cc(C(F)(F)F)cc(C(F)(F)F)c3)[C@@H]2C)CC(C)CC1 (stereo partly shown)")
1
>>> answerlabel("COc1cc(F)c(C(C)C)cc1C1=C(CN2C(=O)O[C@H](c3cc(C(F)(F)F)cc(C(F)(F)F)c3)[C@@H]2C)CC(C)(C)CC1")
1
>>> answerlabel("COc1ccc(C(C)(C)C)cc1C1=C(CN2C(=O)O[C@H](c3cc(C(F)(F)F)cc(C(F)(F)F)c3)[C@@H]2C)CC(C)(C)CC1")
-1
>>> answerlabel("COC(=O)c1ccc(OC)c(C2=C(CN3C(=O)O[C@H](c4cc(C(F)(F)F)cc(C(F)(F)F)c4)[C@@H]3C)CCCC2)c1")
-1
>>> answerlabel("COc1cc(F)c(C(C)C)cc1C1=C(CN2C(=O)O[C@H](c3cc(C(F)(F)F)cc(C(F)(F)F)c3)[C@@H]2C)CC(C(F)(F)F)CC1 (stereo partly shown)")
1
>>> answerlabel("COc1cc(F)c(C2(C)CC2)cc1C1=C(CN2C(=O)O[C@H](c3cc(C(F)(F)F)cc(C(F)(F)F)c3)[C@@H]2C)CC(C)(C)CC1")
1
